Assay Remarks: Pharmacokinetics after intravenous and oral administration in rats
Assay type: in vivo
Condition Parameters: rat, plasma, iv dosing, 1 mg/kg
Description: The LC/MS/MS system used in the analysis consists of an Agilent 1200 Series vacuum degasser, binary pump, well-plate autosampler, thermostatted column compartment, the Agilent G6430 Triple Quadrupole Mass Spectrometer with an electrosprayionization (ESI) source. Quantitative analysis was carried out using MRM mode. The parameters for MRM transitions are in the Table A. […] The compounds disclosed herein are assessed in pharmacokinetic studies in mice, rats, dogs or monkeys. […]
Observation Type: AUC(0-t) (ng·h/mL)

Some entries whose results are on file:
INSERT INTO results (compound, observation_type, meas_value) VALUES
  ('Cc1nn(C)cc1Nc1ncc(Cl)c(NC2CCN(c3ccc(C#N)nn3)CC2)n1 [Ex. 11]', 'AUC(0-t)', 931),
  ('CCC1CN(c2ccc(C#N)cn2)CCC1Nc1nc(Nc2cc(C)n(C)n2)ncc1Cl (stereo not drawn) [Ex. 21]', 'AUC(0-t)', 2320),
  ('CCC1CN(c2ccc(C#N)cn2)CCC1Nc1nc(Nc2ccc3c(C)n(C)nc3c2)ncc1Cl (stereo not drawn) [Ex. 23]', 'AUC(0-t)', 2430),
  ('Cc1nn(C)cc1Nc1ncc(Cl)c(NC2CCN(c3ccc(C#N)cn3)CC2)n1 [Ex. 10]', 'AUC(0-t)', 1740),
  ('Cc1cc(Nc2ncc(Cl)c(N(C)C3CCN(c4ccc(C#N)cn4)CC3)n2)nn1C [Ex. 9]', 'AUC(0-t)', 350);

P: Cc1cnc(Nc2cnn(C)c2)nc1N(C)C1CCN(c2ccc(C#N)cn2)CC1 [Ex. 6]
Q: CCC1CN(c2ccc(C#N)nn2)CCC1Nc1nc(Nc2ccc3c(C)n(C)nc3c2)ncc1Cl (stereo not drawn) [Ex. 17]
# input Kindly identify which of P and Q has the larger recorded AUC(0-t) value. Answer format: the label of the selected item.
# output P
(P: 1360 ng·h/mL, Q: 911 ng·h/mL)
